Test system: α1R271C GlyR
Conditions: read-out: EC50, ΔF (glycine-induced fluorescence change); X. borealis oocytes; MTSR labelled; −40 mV; mean ± s.e.m., n = 4–6
Assay Readout: EC50 (mM)
The reply should contain only the number, in mM.

Problem: // EC50 lookup, key: NCC(=O)O [glycine]
Solution: 1.01

----------
Tested on: α1R271C GlyR
Conditions: read-out: EC50, ΔI (glycine-induced current); X. laevis oocytes; MTSR labelled; −40 mV; mean ± s.e.m., n = 4–6
Assay Readout: pEC50
Please report pEC50 as the negative decimal logarithm of the molar concentration, giving only the number.

Problem: // pEC50 lookup, key: "NCC(=O)O"
Solution: 2.72

----------
Test system: α1N203C GlyR
Conditions: read-out: EC50, ΔI (glycine-induced current); X. borealis oocytes; MTS-TAMRA labelled; −40 mV; mean ± s.e.m., n = 4–6
Description: This technique permits the real time monitoring of conformational changes in ion channel domains distant from the gate. […] As the quantum efficiency of the rhodamine depends on the hydrophobicity of its environment, protein conformational changes occurring in the immediate vicinity of the attached fluorophore are likely to change the hydrophobicity of its environment and thus produce a fluorescence change. […] All data were analysed using Prism 6.0 (GraphPad Software, San Diego, CA, USA). […]
Assay Readout: EC50 (µM)
The reply should contain only the number, in µM.

Problem: // EC50 lookup, key: "NCC(=O)O"
Solution: 136

----------
Tested on: α1N203C GlyR
Conditions: read-out: EC50, ΔF (glycine-induced fluorescence change); X. laevis oocytes; MTS-TAMRA labelled; −40 mV; mean ± s.e.m., n = 4–6
Assay Readout: pEC50
Please report pEC50 as the negative decimal logarithm of the molar concentration, giving only the number.

Problem: // pEC50 lookup, key: "NCC(=O)O"
Solution: 3.26

----------
Target: rat ASIC3 (Rattus norvegicus, UniProt O35240)
Construct: expressed in transfected cells; host or cells: Xenopus laevis and Xenopus borealis oocytes (cRNA injection)
Sequence (O35240 1-533): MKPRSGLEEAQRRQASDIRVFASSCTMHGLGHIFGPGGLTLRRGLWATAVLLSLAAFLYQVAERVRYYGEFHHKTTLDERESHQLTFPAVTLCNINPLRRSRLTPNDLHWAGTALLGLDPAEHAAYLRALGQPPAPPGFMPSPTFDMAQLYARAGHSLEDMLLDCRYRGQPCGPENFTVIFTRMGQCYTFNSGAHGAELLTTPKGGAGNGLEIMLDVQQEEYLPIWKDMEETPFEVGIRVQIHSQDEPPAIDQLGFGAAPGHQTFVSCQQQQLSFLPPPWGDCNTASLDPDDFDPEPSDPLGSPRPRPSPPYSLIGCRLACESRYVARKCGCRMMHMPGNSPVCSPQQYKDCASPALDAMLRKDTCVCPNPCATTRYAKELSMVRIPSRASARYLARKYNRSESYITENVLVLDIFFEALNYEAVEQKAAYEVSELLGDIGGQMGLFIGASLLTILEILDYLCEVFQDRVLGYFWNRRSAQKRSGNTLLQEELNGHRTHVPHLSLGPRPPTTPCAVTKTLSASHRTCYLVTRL
Assay: Inhibition of rat ASIC3 by APETx2, two-electrode voltage-clamp in Xenopus oocytes
Assay type: cell-based
Conditions: X. borealis oocytes; ND96 with 0.1% fatty acid free-bovine serum albumin; 18–21 °C; mean, n = 9; Supplementary Table S3; read-out: IC50 (half-maximal response)
Bridge positions count the residues as written; N and C are the ends. Ends that are not written are not given here.
Assay Readout: pIC50
Please report pIC50 as the negative decimal logarithm of the molar concentration, giving only the number.

Problem: Give recorded pIC50 with rat ASIC3 (Rattus norvegicus, UniProt O35240) for the following sequence: GTACSCGNSKGIYWFYRPSCPTDRGYTGSCRYFLGTCCTPAD (disulfide 4-37, 6-30, 20-38) [APETx2]
Solution: 7.29
